system-name: T1, human GARP-proTGFβ1 complex (human, UniProt P01137 30-390; Q14392 20-627)
T1 construct: also called hGARP-proTGFβ1; hGARP
T1 sequence (P01137 30-390, chain 1 of 2): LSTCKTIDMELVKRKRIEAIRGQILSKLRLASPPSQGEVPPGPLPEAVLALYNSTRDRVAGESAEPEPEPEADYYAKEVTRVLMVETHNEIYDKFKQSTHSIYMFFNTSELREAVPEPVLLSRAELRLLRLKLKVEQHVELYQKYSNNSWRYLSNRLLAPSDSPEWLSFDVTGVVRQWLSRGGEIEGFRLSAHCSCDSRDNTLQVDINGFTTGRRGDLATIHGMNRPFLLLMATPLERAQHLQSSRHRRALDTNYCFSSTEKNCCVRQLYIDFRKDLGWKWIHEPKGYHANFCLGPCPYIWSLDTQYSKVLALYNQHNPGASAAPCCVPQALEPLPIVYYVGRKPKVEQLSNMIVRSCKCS
T1 sequence (Q14392 20-627, chain 2 of 2): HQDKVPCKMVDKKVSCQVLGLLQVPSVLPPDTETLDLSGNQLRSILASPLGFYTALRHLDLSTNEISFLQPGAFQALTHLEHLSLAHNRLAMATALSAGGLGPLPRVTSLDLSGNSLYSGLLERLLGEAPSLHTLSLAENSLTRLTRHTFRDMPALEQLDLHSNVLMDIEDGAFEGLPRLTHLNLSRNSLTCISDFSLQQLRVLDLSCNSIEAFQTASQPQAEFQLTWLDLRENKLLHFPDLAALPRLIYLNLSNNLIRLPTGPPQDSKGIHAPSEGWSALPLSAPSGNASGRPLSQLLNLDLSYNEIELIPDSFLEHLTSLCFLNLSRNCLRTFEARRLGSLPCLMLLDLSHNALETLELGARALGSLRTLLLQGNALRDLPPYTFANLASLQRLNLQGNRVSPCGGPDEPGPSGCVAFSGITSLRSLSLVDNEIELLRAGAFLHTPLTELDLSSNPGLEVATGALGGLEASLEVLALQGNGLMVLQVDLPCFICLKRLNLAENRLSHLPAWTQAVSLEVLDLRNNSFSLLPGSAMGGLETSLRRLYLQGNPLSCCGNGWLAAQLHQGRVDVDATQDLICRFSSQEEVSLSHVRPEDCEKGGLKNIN
protocol-details: MSD-SET, hIgG4
Description: MSD-SET assays were performed to measure affinities of the antibodies at equilibrium. Briefly, each test antibody was diluted 3-5 fold and samples were mixed with biotinylated antigen in a 48-well dish. The SET samples were equilibrated for 20-24 hours at room temperature. […] 2× Read Buffer was added, and signals from the labeled bound complexes were read with the use of QuickPlex™ SQ 120 instrument.
outcome-measure: pKd
Conceptually, pKd converts a concentration in mol/L into minus its log10.

binder	pKd
Ab11 (antibody, IgG4, V domains shown) VH: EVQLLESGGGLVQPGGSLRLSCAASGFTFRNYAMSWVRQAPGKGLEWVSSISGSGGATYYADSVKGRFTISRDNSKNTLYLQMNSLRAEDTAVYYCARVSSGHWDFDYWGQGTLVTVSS VL: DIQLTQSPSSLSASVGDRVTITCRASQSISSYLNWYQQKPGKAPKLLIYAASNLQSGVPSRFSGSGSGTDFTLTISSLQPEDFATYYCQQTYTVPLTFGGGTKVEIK	8.52
Ab22 (antibody, IgG4, V domains shown) VH: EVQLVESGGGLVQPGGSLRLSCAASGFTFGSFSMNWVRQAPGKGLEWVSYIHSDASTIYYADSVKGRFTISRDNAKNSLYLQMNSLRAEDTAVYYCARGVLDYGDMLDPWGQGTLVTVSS VL: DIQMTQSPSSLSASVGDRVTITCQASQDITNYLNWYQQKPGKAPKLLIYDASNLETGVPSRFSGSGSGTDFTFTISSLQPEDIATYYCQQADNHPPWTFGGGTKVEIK	10.57
Ab30 (antibody, IgG4, V domains shown) VH: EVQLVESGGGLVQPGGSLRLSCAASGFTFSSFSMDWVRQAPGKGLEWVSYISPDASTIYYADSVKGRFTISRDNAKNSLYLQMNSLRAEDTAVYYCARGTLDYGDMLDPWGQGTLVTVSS VL: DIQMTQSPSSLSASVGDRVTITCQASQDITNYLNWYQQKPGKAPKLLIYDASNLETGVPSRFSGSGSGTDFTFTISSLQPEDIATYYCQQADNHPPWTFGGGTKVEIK	10.66

--- query ---
Item under review: Ab33 (antibody, IgG4, V domains shown) VH: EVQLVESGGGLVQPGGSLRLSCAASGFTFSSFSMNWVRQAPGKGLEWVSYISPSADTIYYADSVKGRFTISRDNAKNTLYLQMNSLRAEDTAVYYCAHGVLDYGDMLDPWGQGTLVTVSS VL: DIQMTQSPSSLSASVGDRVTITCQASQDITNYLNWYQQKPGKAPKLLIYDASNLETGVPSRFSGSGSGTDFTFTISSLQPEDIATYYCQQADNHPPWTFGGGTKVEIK . Reported pKd? 11.11
